Measured values drawn from patent US11179412B2 for this set.

system: STING activation (IFNβ release) in iBMDMs; assay: IFNβ release ELISA after STING ligand (or LPS) stimulation, iBMDMs; format: cell-based, mouse; details: iBMDMs; 3′3′-cGAMP 10 μg/ml, 16 hours; compound 10 μM
Counter-ions that a name gives are not always drawn.
VALUE TYPE: fold increase in IFN-β release (fold)
Please give a number only; it is taken to be in fold.

Provide the documented fold increase in IFN-β release with STING activation (IFNβ release) in iBMDMs as the system for C/C(=N\NC(=S)N1CCC1)c1ccccn1 [NSC 319726]
2.43

// query: CCCCN1CCCCC1C(=O)Nc1c(C)cccc1C (stereo not drawn) [Bupivacaine HCl]
0.42

// query: COc1cccc(C=NCCN=Cc2cccc(OC)c2[O-])c1[O-].[Cl-].[Mn+3] [EUK 134]
1.10

// query: CC1=C(C(=O)OC2CCCCC2)C(c2ccc([N+](=O)[O-])cc2)C2=C(CC(C)(C)CC2=O)N1 (stereo not drawn) [FLI-06]
2.06

// query: O=S(=O)(c1ccccc1)N(CC(F)(F)F)c1ccc(C(O)(C(F)(F)F)C(F)(F)F)cc1 [T0901317]
1.49

// query: COc1cc(F)c(F)c(Nc2ccc(I)cc2F)c1NS(=O)(=O)C1(C[C@H](O)CO)CC1 [Refametinib (RDEA119, Bay 86-9766), Refametinib]
0.64

// query: CCN1CCC[C@H]1CNC(=O)c1cc(S(N)(=O)=O)ccc1OC [Levosulpiride]
1.91

// query: Nc1cccc2c1CN(C1CCC(=O)NC1=O)C2=O (stereo not drawn) [Lenalidomide (CC-5013), Lenalidomide]
1.09

// query: C=C1C(=O)O[C@@H]2/C=C(\C)CC/C=C(\C)CC[C@@H]12 [Costunolide]
0.37

* * *

system: STING activation (IFNβ release) in iBMDMs; assay: IFNβ release ELISA after STING ligand (or LPS) stimulation, iBMDMs; type: cell-based, mouse; settings: iBMDMs; 3′3′-cGAMP 10 μg/ml, 16 hours; compound 10 μM
Where a name gives a salt, the structure may show the parent alone.
Threshold rule: fold increase in IFN-β release greater than or equal to 0.6 fold is 1; below that, 0.

I'd appreciate it if you could say whether N[C@@H]1C[C@H]1c1ccccc1 (racemic) [Tranylcypromine (2-PCPA) HCl, Tranylcypromine] has fold increase in IFN-β release at least equal to 0.6 fold.
1

// query: N#CSc1cc(SC#N)c(N)nc1N [PR-619]
1

// query: OC(CNCC(O)C1CCc2cc(F)ccc2O1)C1CCc2cc(F)ccc2O1 (stereo not shown) [Nebivolol]
1

// query: CO[C@H]1C[C@@H]2CC[C@@H](C)[C@@](O)(O2)C(=O)C(=O)N2CCCC[C@H]2C(=O)O[C@H]([C@H](C)C[C@@H]2CC[C@@H](OP(C)(C)=O)[C@H](OC)C2)CC(=O)[C@H](C)/C=C(\C)[C@@H](O)[C@@H](OC)C(=O)[C@H](C)C[C@H](C)/C=C/C=C/C=C/1C [Ridaforolimus (Deforolimus, MK-8669), Ridaforolimus]
0

// query: C[C@@H]1CN(CC(=O)Nc2ccc3c(c2)Cc2cccc(-c4cc(=O)cc(N5CCOCC5)o4)c2S3)C[C@H](C)O1 [KU-60019]
0

// query: O=C(O)Cn1nnc(-c2cc(N3CCC(Oc4cc(F)ccc4Br)CC3)no2)n1 [MK-8245]
0

// query: CCNC(=O)c1noc(-c2cc(C(C)C)c(O)cc2O)c1-c1ccc(CN2CCOCC2)cc1 [AUY922 (NVP-AUY922)]
1

* * *

test system: STING activation (IFNβ release) in iBMDMs; assay: IFNβ release ELISA after STING ligand (or LPS) stimulation, iBMDMs; type: cell-based, mouse; settings: iBMDMs; 3′3′-cGAMP 10 μg/ml, 16 hours; compound 10 μM
Threshold rule: fold increase in IFN-β release greater than or equal to 1 fold is True; below that, False.

I'd appreciate it if you could say whether C/C(=C\C(=O)Nc1ccccc1C(=O)O)c1ccc2ccccc2c1 has fold increase in IFN-β release at least equal to 1 fold.
True

// query: NC(=O)N1c2ccccc2CC(=O)c2ccccc21 [Oxcarbazepine]
True

// query: C=CC(=O)Nc1cccc(Oc2nc(Nc3ccc(N4CCN(C)CC4)cc3OC)ncc2Cl)c1
True

// query: O=[N+]([O-])C=Cc1ccc2c(c1)OCO2
False

// query: O=c1cc(-c2ccc(O)cc2)oc2cc(O)cc(O)c12
False
